# ASSAY SYSTEM: T1, GPR10 (UniProt P49683 1-370, limits assumed)
# T1 sequence (looked up): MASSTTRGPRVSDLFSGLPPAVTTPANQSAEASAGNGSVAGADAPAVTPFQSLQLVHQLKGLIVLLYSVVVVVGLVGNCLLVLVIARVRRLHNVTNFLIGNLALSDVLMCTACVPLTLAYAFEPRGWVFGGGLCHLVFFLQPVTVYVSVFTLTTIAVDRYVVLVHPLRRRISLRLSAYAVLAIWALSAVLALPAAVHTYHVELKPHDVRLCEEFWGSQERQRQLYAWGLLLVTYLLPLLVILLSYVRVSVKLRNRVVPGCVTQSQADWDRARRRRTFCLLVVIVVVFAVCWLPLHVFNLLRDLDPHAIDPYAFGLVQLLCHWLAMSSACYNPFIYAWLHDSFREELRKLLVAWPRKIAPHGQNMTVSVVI
# RUN DESCRIPTION: cell-based or functional assay
Bridges are numbered along the chain shown (N, C = ends). Where no end group is shown, it is not given here. L1 = not defined here; L3 = not defined here; L4 = not defined here
Decision: GPR10 EC50 beneath 20 nM gives True; GPR10 EC50 meeting or exceeding 20 nM gives False.

TPDINPCWYTGRGCRPVGRF-NH2 (cysteine pairing not given here) [SEQ ID NO 85] :: False
TPDINPCWYTGRGCRPVGRF-NH2 (linker 7-14 via L4; reading uncertain) [Conjugate 223] :: False
TPCINPAWYCGRGIRPVGRF-NH2 (linker 3-10 via L1; reading uncertain) [Conjugate 205] :: False
SRAHQHSMETRTPDCNPAWYTCRGIRPVGRF-NH2 (cysteine pairing not given here) [SEQ ID NO 93] :: True
SRAHQHSMCTRTPDICPAWYTGRGIRPVGRF-NH2 (cysteine pairing not given here) [SEQ ID NO 91] :: False
TPDINCAWYTGRCIRPVGRF-NH2 (cysteine pairing not given here) [SEQ ID NO 84] :: True

GPR10 EC50 strictly < 20 nM for this binder? TCDINPAWCTGRGIRPVGRF-NH2 (linker 2-9 via L3; reading uncertain) [Conjugate 213]
False

GPR10 EC50 strictly < 20 nM for this binder? SRAHQHSMETRTCDINPAWCTGRGIRPVGRF-NH2 (linker 13-20 via L1; reading uncertain) [Conjugate 228]
False
